Listing of recorded inhibition by entry.
Assay: UWB1.289_BRCA1 ovarian cancer growth, cell-based, BGB or cisplatin combinations (AID 1671459)
Settings: UWB1.289 BRCA1 ovarian carcinoma, drug combinations, at 0.5 µM, active compounds read high
measuredProperty: inhibition (%)

1) NC(=O)c1nc(F)c[nH]c1=O	1.49
2) C[C@]12CCCN1CC1=NNC(=O)c3cc(F)cc4[nH]c2c1c34	2.39
3) Nc1nc(OCc2cc(Br)cs2)c2[nH]cnc2n1	-6.34
4) Nc1nc2n[nH]nc2c(=O)[nH]1	38.3
5) CC(=O)Nc1ccc(C(=O)Nc2ccccc2N)cc1	-2
6) O=C(COc1cccc2c(=O)[nH]ccc12)c1ccccc1	-4.72
7) CCCCc1nc2cc(/C=C/C(=O)NO)ccc2n1CCN(CC)CC	51.5
8) CC(C)OC(=O)[C@H](C)N[P@](=O)(OC[C@H]1O[C@@H](n2ccc(=O)[nH]c2=O)[C@](C)(F)[C@@H]1O)Oc1ccccc1	-0.57
9) CO[C@H]1/C=C/O[C@@]2(C)Oc3c(C)c(O)c4c(O)c(c(/C=N\N5CCN(C6CCCC6)CC5)c(O)c4c3C2=O)NC(=O)/C(C)=C\C=C\[C@H](C)[C@H](O)[C@@H](C)[C@@H](O)[C@@H](C)[C@H](OC(C)=O)[C@@H]1C	-5.57
10) N=C1CCCN1Cc1[nH]c(=O)[nH]c(=O)c1Cl	4.18
11) O=C(O)CO.[NH2-].[NH2-].[Pt+2]	-1.6
12) C=C1[C@H](CO)[C@@H](O)C[C@@H]1n1cnc2c(=O)[nH]c(N)nc21	-14
13) Nc1ccc(-c2ccc3ncc4ccc(=O)n(-c5cccc(C(F)(F)F)c5)c4c3c2)cn1	52.1
14) O=C(/C=C/c1ccc(CN(CCO)CCc2c[nH]c3ccccc23)cc1)NO	95.2

====

Assay: viability loss in pontine glioma line – cell-based, SU-DIPG-IV, MIPE4.0, CellTiter-Glo, qHTS, dose response (AID 1347063);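 note: compound exposure lasted 48 hours before the viability readout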
Conditions: CellTiter-Glo ATP luminescence
Results filed as inconclusive are left out. Activity calls are given as the source filed them. The limit is not given here; nearly all actives have AC50 up to about 30 µM.
Possible outcomes: t (active), f (inactive)

1) COc1ncc(-c2ccc3nccc(-c4ccnnc4)c3c2)cc1NS(=O)(=O)c1ccc(F)cc1F	t
2) CN(C)C(=O)[C@H](O)[C@H](Cc1ccccc1)NC(=O)c1cc2cc(Cl)ccc2[nH]1	t
3) O=C(O)Cn1nnc(-c2cc(N3CCC(Oc4cc(F)ccc4Br)CC3)no2)n1	f
4) CO[C@H]1/C=C/O[C@@]2(C)Oc3c(C)c(O)c4c(O)c(c5c(c4c3C2=O)=NC2(CCN(CC(C)C)CC2)N=5)NC(=O)/C(C)=C/C=C/[C@H](C)[C@H](O)[C@@H](C)[C@@H](O)[C@@H](C)[C@H](OC(C)=O)[C@@H]1C	f
5) Cc1ccc(C(=O)Nc2cccc(C(F)(F)F)c2)cc1Nc1nc(-c2cccnc2)nc2c1cnn2C	t
6) Cc1cn([C@@H]2C[C@@H](O)[C@H](CO)O2)c(=O)[nH]c1=O	f
7) CC(C)=CCC/C(C)=C/CC/C(C)=C/CSc1ccccc1C(=O)O	t
8) C=CC(=O)Nc1ccc2ncnc(Nc3ccc(OCc4cccc(F)c4)c(Cl)c3)c2c1	t
